Some binders, each annotated with its measured Kd.
TARGET ENTITY: T1, c-Cbl TKB domain (UniProt P22681 25-351)
T1 construct: these are not the construct limits; source: cloning, expression and purification as described previously [14]; purified
T1 sequence: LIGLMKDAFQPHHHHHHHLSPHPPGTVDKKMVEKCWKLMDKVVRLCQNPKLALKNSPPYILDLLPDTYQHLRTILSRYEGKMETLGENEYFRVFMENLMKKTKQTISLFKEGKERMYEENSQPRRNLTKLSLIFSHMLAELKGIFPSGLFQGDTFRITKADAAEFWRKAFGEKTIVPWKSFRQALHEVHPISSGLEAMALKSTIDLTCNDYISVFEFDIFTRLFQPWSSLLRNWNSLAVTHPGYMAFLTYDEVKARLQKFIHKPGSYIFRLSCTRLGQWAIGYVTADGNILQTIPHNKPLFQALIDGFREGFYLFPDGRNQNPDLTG
CONDITIONS USED: both partners purified
Where no end group is shown, it is not given here. [ ]: non-standard residue; d: D form. pY = N[C@@H](Cc1ccc(OP(=O)(O)O)cc1)C(=O)O; pT = C[C@@H](OP(=O)(O)O)[C@H](N)C(=O)O
OBSERVATION TYPE: Kd (µM)

INSERT INTO results (binder, value_reported) VALUES
  ('IRNTNE[pY]TEGPT (also called pSpry2; pSprouty2) [Tyr55 phosphorylated Spry2 peptide]', 0.31),
  ('IRNTNE[pY][pT]EGPT (Sprouty2 (Spry2), human; also called ppSpry2; pYpT-Spry2; source: synthetic peptide, bought: GL Biochem) [pTyr55/pThr56 Spry2 peptide]', 3.83);
